Test system: Plasmodium berghei
protocolSummary: Screen against P. berghei liver stage (PbLuc), transformed with Luciferase, at 10uM
Type: functional, HepG2
conditionsUsed: tested at 10 uM
Among all 69,000 compounds or so, about 8,600 (12%) showed an effect of 50% or more. The entries come from a sample that favours strong results as a whole.
Kindly return Criterion met if reported INHIBITION is no lower than 10%; return Criterion not met if it is lower.

### Prompt Kindly determine if INHIBITION recorded for CCn1cc(Br)c(C(=O)NCc2cnn(C)c2)n1 is above or exactly 10%.
### Response Criterion not met

### Prompt Kindly determine if INHIBITION recorded for NC(=O)CN1CCN(CC2CC2)c2ccccc21 is above or exactly 10%.
### Response Criterion met

###

Test system: Plasmodium berghei
protocolSummary: Screen against P. berghei liver stage (PbLuc), transformed with Luciferase, at 10uM
Assay type: functional, HepG2
conditionsUsed: tested at 10 uM
In all, about 69,000 compounds went through this assay and about 8,600 (12%) showed an effect of 50% or more. This excerpt belongs to a sample that is enriched for strong results.
Measured INHIBITION values are reported for all entries that follow.
Unit % implied. Number only.

Worked cases, INHIBITION given:
compound	INHIBITION / %
CC(C)(C)NC(=O)CN1CCCC(c2ccc(C(=O)O)cc2)C1 (centres undefined)	26.9
Cc1ccc(CN(C)C(=O)CN2CCCC2c2cnn(C)c2)cc1 (centres undefined)	-1.79
COCC(=O)NCCn1nc(-c2cc(C)oc2C)ccc1=O	-0.275
NC(=O)CN1CCCC(C(=O)N2CCC(O)(c3ccccc3)CC2)C1 (centres undefined)	58.3

### Prompt I have this compound here, O=C(c1cnc2ccc(F)cc2c1NCc1ccco1)N1CCCCC1 , and I need its recorded INHIBITION.
### Response -6.73

### Prompt I have this compound here, Cc1ccc(CN(C)C(=O)c2cnsn2)cc1 , and I need its recorded INHIBITION.
### Response 65.2

### Prompt I have this compound here, CCc1ncnc(N2CCCC(c3cc(C(N)=O)[nH]n3)C2)c1F (centres undefined) , and I need its recorded INHIBITION.
### Response -24

### Prompt I have this compound here, O=C(C1CC1)N1CCC(C(=O)N2CCC(c3ccc(F)cc3)C2)CC1 (centres undefined) , and I need its recorded INHIBITION.
### Response 61.9

### Prompt I have this compound here, Cc1ccc(CN(C)C(=O)c2scnc2C)cc1 , and I need its recorded INHIBITION.
### Response -11.19

### Prompt I have this compound here, CN(C)C(=O)CCNC(=O)NCc1ccc(Br)cc1Cl , and I need its recorded INHIBITION.
### Response 47.6

### Prompt I have this compound here, CCc1cc2c(N3CCCC(c4ccn[nH]4)C3)ncnc2s1 (centres undefined) , and I need its recorded INHIBITION.
### Response -1.76

### Prompt I have this compound here, CN(Cc1cccc(OC(F)(F)F)c1)C(=O)c1ccncc1F , and I need its recorded INHIBITION.
### Response 39.4

### Prompt I have this compound here, Cc1nc(C(=O)N2CCOC(c3nc(C(C)C)n[nH]3)C2)c[nH]1 (centres undefined) , and I need its recorded INHIBITION.
### Response -16

### Prompt I have this compound here, COCC(=O)N(C)Cc1ccc(Cl)c(Cl)c1 , and I need its recorded INHIBITION.
### Response -11.1

### Prompt I have this compound here, COC(=O)c1cccc(C(=O)N(C)Cc2ccsc2)c1 , and I need its recorded INHIBITION.
### Response 13.8

### Prompt I have this compound here, CC(=O)c1ccc(CNC(=O)c2cc(C#N)cn2C)nc1C , and I need its recorded INHIBITION.
### Response 12

### Prompt I have this compound here, N#CC1(c2ccccc2)CCN(C(=O)C2CCCN(CC(N)=O)C2)CC1 (centres undefined) , and I need its recorded INHIBITION.
### Response 61

### Prompt I have this compound here, COC(=O)c1cccc(C(=O)N(C)Cc2cccc(O)c2)c1 , and I need its recorded INHIBITION.
### Response 7.44

### Prompt I have this compound here, CC1CCN(S(=O)(=O)c2ccc(C(=O)N3CCSCC3)cc2)CC1 , and I need its recorded INHIBITION.
### Response -2.39
